experiment: log P by reversed-phase HPLC analogously to OECD Guideline 117; assay type: physicochemical; settings: reversed-phase C18 HPLC column, pH 7.8, running text; [b] neutral range, pH 7.8; read-out: log P[b]
Examples of compounds with documented chromatographic logP follow.
Output spec: single numeric token, no unit.

As a guide, the following entries are already answered.
compound: Cc1cc(F)c(-n2ccc(=O)n(C)c2=O)cc1SCC(F)(F)F
chromatographic logP: 2.53
--
compound: Cc1cc(F)c(-n2ccc(=O)[nH]c2=O)cc1SCC(F)(F)F
chromatographic logP: 2.06

In the following, a different compound is considered.
Memo: CCn1c(=O)ccn(-c2cc([S+]([O-])CC(F)(F)F)c(C)cc2F)c1=O (stereo not drawn) , reported chromatographic logP: 1.88
